The entries below come with measured IC50 values attached.
SUBJECT_OF_TEST: hOX1R (Homo sapiens)
Sequence (O43613 whole entry): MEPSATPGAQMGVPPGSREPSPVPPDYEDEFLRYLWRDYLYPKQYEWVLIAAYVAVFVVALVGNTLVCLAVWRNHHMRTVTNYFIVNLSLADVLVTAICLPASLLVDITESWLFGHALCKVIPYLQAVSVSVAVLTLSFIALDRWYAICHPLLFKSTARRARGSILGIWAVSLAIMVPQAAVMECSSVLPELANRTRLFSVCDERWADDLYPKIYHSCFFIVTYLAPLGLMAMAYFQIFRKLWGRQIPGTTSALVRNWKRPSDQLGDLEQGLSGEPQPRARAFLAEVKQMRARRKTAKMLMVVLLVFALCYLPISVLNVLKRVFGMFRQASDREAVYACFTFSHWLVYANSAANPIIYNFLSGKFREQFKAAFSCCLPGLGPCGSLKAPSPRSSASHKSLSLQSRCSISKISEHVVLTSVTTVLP
ASSAY: Intracellular calcium measurements using division-arrested cells, OX1
Type: cell-based
EXPERIMENTAL_SETUP: agonist orexin A at 2×EC50, * = single experiment, otherwise average of at least two, read-out: pIC50 OX1 (converted)
Numbers only; they are read as µM.

Data request: Item CC[C@@H](CNc1ccc(Cl)cn1)N(C)C(=O)c1cc(OC(F)(F)F)ccc1-n1nccn1 with hOX1R (Homo sapiens) - IC50?
Data returned: 0.2

Data request: Next compound up: CC(C)C[C@@H](CNc1ccc(Cl)cn1)N(C)C(=O)c1ccccc1-c1ccccc1
Data returned: 0.794

Data request: Next compound up: CC[C@@H](CNc1ccc(Cl)cn1)N(C)C(=O)c1cc(Br)ccc1-n1nccn1
Data returned: 0.0251

Data request: Next compound up: CC(C)[C@@H](CNc1ccc(Cl)cn1)N(C)C(=O)c1ccccc1-c1ccccc1
Data returned: 0.0794

Data request: Next compound up: CC[C@@H](CNc1ccc(Cl)cn1)N(C)C(=O)c1ccccc1-c1ccccc1
Data returned: 0.02

---
Data request: Item Cc1nc(-c2ccccc2)c(C(=O)N[C@H](CNc2ccc(Cl)cn2)CC(C)C)s1 with hOX1R (Homo sapiens) - IC50?
Data returned: 1.58

Data request: Next compound up: CN(C(=O)c1ccccc1-c1ccccc1)[C@H](CNc1ccc(Cl)cn1)C1CC1
Data returned: 0.0398

Data request: Next compound up: CC(C)C[C@@H](CNc1ccc(Cl)cn1)NC(=O)c1ccccc1-c1ccccc1
Data returned: 1
